- Protocol Details: Components of the Cytosolic LPS Sensing Pathway: Gene Identification via Genome-wide siRNA Screen;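 also: robust z of the log signal after scaling to non-targeting control siRNA wells of the plate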
- Measurement Parameters: RAW264.7 macrophages, IL-1a HTRF, actives lie on both sides, screened at 100 nM (by protocol), cells primed 5 h with Pam3CSK4 first
The whole screen tested about 53,000 sequences, of which about 3,700 (7%) were called active. Many of the other results were omitted from the sample, so actives are more common in it than they were.
Endpoint Label: z-score

• GGGCUUUCCUCAAGGUAGUTT against Olfr62 = -1.39
• GCUGAGACUUCGAGCCUAUTT against Polr2c = -0.976
• GGAUACUCUCAGGACGUGATT against Ncbp2 = -2
• GGGAAAUUUAAAAACCUGGTT against Hoxa2 = -0.139
• GCUUAGUGGUUCUUAUUUGTT against Olfr893 = -0.214
• GGUCAUGGUUAUUUUGUUATT against Plekhg2 = 0.929
• GGCCUCAAAUACCAUAACATT against Zfp941 = 0.000237
• GGCUUAUGUGAUUUUGAUUTT against Gpr63 = -0.628
• GGUCUCACAAAAACAGUUCTT against Casq2 = -0.317
• GCUUCACAUGAAGCAACCUTT against Fam149b = -0.102
• GGCCAUGGUGGCGUGUUAUTT against Egln2 = -0.524
• CGGAUAUUUACGAACUUACTT against Pitpnb = 1.24

* * *

- Protocol Details: Components of the Cytosolic LPS Sensing Pathway: Gene Identification via Genome-wide siRNA Screen;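 also: robust z of the log signal after scaling to non-targeting control siRNA wells of the plate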
- Measurement Parameters: RAW264.7 macrophages, IL-1a HTRF, actives lie on both sides, screened at 100 nM (by protocol), cells primed 5 h with Pam3CSK4 first
The whole screen tested about 53,000 sequences, of which about 3,700 (7%) were called active.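 The calls were made as follows: active = gene knockdowns whose robust z-score for IL-1 alpha signal is at least 2 or at most -2, so actives lie on both sides; inactive = the rest.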 This is one part of a sample in which actives are shown more often than they occur.
Possible outcomes: Y = active, N = inactive

- GGAUGAAAUUGUGUUAUCUTT against Snrk: N
- GCACCGACCACCAAAUCUATT against Prol1: N
- GCUUCAUGGAUGCAAUUGATT against Adhfe1: N
- CCUGGUAAUCACAAUUUCGTT against Tor1b: N
- GGUCUUCAACCCUGUUUGGTT against Gpsm3: N
- GGAAAUCAGAAGAAGAACATT against Hars: Y
- GGAACAAAGACUUCAAAGATT against Olfr323: N
- GCCGACUUUAAUGACUGCUTT against Cmtm4: N
- GCAACGACUCUAAUGACUUTT against Slc38a1: N
- GGCAAACCAGGAAAAGGUCTT against Abhd2: Y
- CCGUGCCAAACUUCUUACUTT against 2610528J11Rik: N
- GGAACUGCCCAGUUCUUAATT against Ppan: N
- GGGUAUCAACCACUUUUUUTT against Serping1: N
- GGUGGGCUACGAACUAAAGTT against Prpf31: N
- GCGGAAUUUGGUUUCUAUUTT against Etv2: N
- GCUCUAACGUAUGAUGCCATT against Nde1: N
- GGAAGAGCAGGAGGAAACATT against Mea1: Y
- GCAGACAAAGAUCCUAUGCTT against Atp2b3: Y
- GGCACUGUUGUGGCUGAAATT against Coro1a: N
- GGUUCAGCUGGUCCUAUCUTT against Olfr1099: Y
- GGUAGAGGUGGAAUGUAGCTT against Qprt: N
- CCCAGAGCCAGGUUCAAACTT against AY702103: N
- GCUCCUGUAGACAGGUUAGTT against Serac1: N
- GAUAUAAAGCCUUCAACACTT against Olfr912: N
- GGUGUAUUGAGCUAAACAUTT against Rnft2: N

* * *

- Protocol Details: Components of the Cytosolic LPS Sensing Pathway: Gene Identification via Genome-wide siRNA Screen;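 also: robust z of the log signal after scaling to non-targeting control siRNA wells of the plate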
- Measurement Parameters: RAW264.7 macrophages, IL-1a HTRF, actives lie on both sides, screened at 100 nM (by protocol), cells primed 5 h with Pam3CSK4 first
- Experimental: Non-canonical inflammasome activation by cytosolic LPS is a critical component of the host response to Gram-negative bacterial infection, however we lack a comprehensive understanding of the cellular processes that control this pathway. […] Lipofectamine RNAiMAX Transfection Reagent ([…]; Invitrogen) was added in […] serum-free, antibiotic-free media to plate wells using a Thermo Scientific Matrix WellMate and Microplate Stacker. […] The plates were read on an EnVision plate reader (PerkinElmer). […]
The campaign covered roughly 53,000 sequences. About 3,700 (7%) were called active. This excerpt belongs to a sample that is enriched for actives.
Endpoint Label: z-score

• CCACUAUGGCGACCAGAUUTT against Mfap2 = 0.0375 (inactive)
• GCUGGUGUCUUAUGGCCUATT against 9130008F23Rik = -2.02 (active)
• GGAUCUCGAGCUGACAGAATT against Arhgap33os = 1.31 (inactive)
• GUUACUGCGUGGACUGUGUTT against C730034F03Rik = -0.0785 (inactive)
• GGUGUUAAGUCACAAAAUGTT against Meis2 = 1.59 (inactive)
• CGGUUAACUGGAAAGUGCGTT against Tmem132e = 2.99 (active)
• GGAGAUGAAGUGGACAGACTT against Anapc13 = 1.02 (inactive)
• GGGAGAAUUGUAGAUUAUUTT against Myo10 = 0.475 (inactive)
• GGUUGUCGUCAACAAGAGCTT against Krt72 = 1.96 (inactive)
• GCUACUGCCGGAAUUUGGUTT against Tiam1 = 0.497 (inactive)
• GGAAAGAGUGUGCAAACUCTT against Ly6d = 0.0731 (inactive)
• GCUGUUUUCUUUCCAUUUCTT against Olfr981 = -1.1 (inactive)
• GGAAAAGCUACCUGUGUCATT against Tril = -1.88 (inactive)
• GGCCAGGUAACUCUUACAATT against Trpv1 = 1.12 (inactive)
• GGCGAUAAGGAACAGAAGUTT against Ppp3r1 = -0.199 (inactive)
• GGCUGUACCAAUCUGACACTT against Pvalb = 0.318 (inactive)
• CCGUGUUAGAGUUUUCGACTT against Top3b = 1.2 (inactive)
• GGAACACUCCAGUUUGAAUTT against Thsd1 = 1.09 (inactive)
• GGAUUUCAAAAACCACGUGTT against Snx1 = 1.14 (inactive)
• GGUAGAACUUAUUGUGGACTT against Ly6f = -0.692 (inactive)

* * *

- Protocol Details: Components of the Cytosolic LPS Sensing Pathway: Gene Identification via Genome-wide siRNA Screen;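 also: robust z of the log signal after scaling to non-targeting control siRNA wells of the plate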
- Measurement Parameters: RAW264.7 macrophages, IL-1a HTRF, actives lie on both sides, screened at 100 nM (by protocol), cells primed 5 h with Pam3CSK4 first
Hit rate of the full screen: of about 53,000 sequences, about 3,700 (7%) were called active.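 The calls were made as follows: active = gene knockdowns whose robust z-score for IL-1 alpha signal is at least 2 or at most -2, so actives lie on both sides; inactive = the rest.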 This excerpt belongs to a sample that is enriched for actives.
Possible outcomes: label 1 for active, label 0 for inactive

• GGAGCAGAUACCCUAGCCUTT against Mtx1 = label 0
• GGGCUCUAACAUCUUAUACTT against Tbc1d31 = label 0
• GGAAUAUCCAGUAUUGAUUTT against Cd180 = label 0
• GGUAAAGCAAGAGAGUAUUTT against Hccs = label 0
• CCAUUGACUUACUUCUAAGTT against Gimap6 = label 0
• GGAAUGUUGGAAUCAAUUGTT against Gcm1 = label 1
• CCUGUAAUGAGUAUGACAUTT against Commd10 = label 0
• GGAAGUUCCGUCGAUUUGATT against Cyp8b1 = label 0
• CCUUGGCCAAUCUCCACAATT against Ptpmt1 = label 0
• GGAACAGGCAACAUGAUUGTT against Nlgn3 = label 0
• GGAAAUCUGUUCUUGAAGGTT against Pcdhb4 = label 0
• CCUGCUUUGUAUCUCCUCCTT against Csprs = label 0
• CCCUCUUAGGAGCUAGUGATT against Atp2b4 = label 0
• GCAUCCUUGACCGAUACUATT against Psmb2 = label 1
• CCUAAAUUAGUAGGACGGUTT against Cdkn1a = label 0
• GGAACAGACAGAGAACACATT against Tgm6 = label 1
• GGAUGCUAAUUCAAGUCUUTT against Slc1a7 = label 0
• GGACUAUUCUGAGAAUCCCTT against Olfr821 = label 0
• GGAACACCAUCAAUAAACUTT against Tjap1 = label 1
• GGAAGAUGUCCAAACCCGCTT against Tspan4 = label 0
• GCCUAUACAACCCUAUUGUTT against Kazn = label 0
• GGUAAUUAAUUCAAAGCAGTT against St8sia4 = label 0
• GCUCCUAUCCACAAUGCUGTT against Radil = label 0
• GGGAACGCAACAUUUCUCCTT against Oxld1 = label 1
• GCUGAUAAACAUCAGCUACTT against Zdhhc23 = label 1
• CCACAUACAUUUCACAGGGTT against Kdf1 = label 0
• GCAUACCUCCGUAUUGUGATT against Snx30 = label 0
• GGACUGGUUCUUCAGUACCTT against Cradd = label 1
• CCAAAGUCUGUUAAUGGGUTT against 4921517D22Rik = label 0
• GGAUGAUGUGAUGAAGAUCTT against Fgfr4 = label 0
• GGCCUUCUAUUUUGUCAAUTT against Limd1 = label 0
• CCUGAUCUCAGCCUAUACUTT against Rapgef6 = label 1
• GGGAAUUUCAGGCUAUAUUTT against Taf2 = label 0
• GGAUUUCAAAUGGAAACAATT against Vmn1r45 = label 0
• GGGAAAAUUCCAGAAUUGUTT against Serpinb9c = label 0
• GGGCGACUUAUUUUUUGUUTT against Zfp111 = label 0
• CGUAGCUAUUCUGGUUGUCTT against H2-Q6 = label 0
• GGAAUUAUGAUGUAGACAGTT against Garre1 = label 0
• GGGAAUUGCCUCAGCUAAGTT against Men1 = label 1
• CCCAGGGUGUCAAUCUAAATT against Cby1 = label 0
• GCACCUGAAGACUAAUGUUTT against Gcnt2 = label 0
• GGAGAAAGCUCAGCAUACATT against Usp3 = label 0

Origin of the recorded values: PubChem BioAssay AID1508600
